# System: rat trachea rings
# assay: Measurement of isometric force development: constriction of rat trachea rings
# measurement_conditions: 10 μM; in % of the constriction induced by 50 mM KCl
This listing pairs molecules with measured % trachea constriction at 10 μM.

{"molecule": "CCc1cc(-c2noc(-c3cc(OC)nc(C4CCCC4)c3)n2)cc(C)c1OC[C@@H](O)CNC(CO)CO [Example 4]", "% trachea constriction at 10 μM": "<5%"}
{"molecule": "CCc1cc(-c2noc(-c3cc(OC)nc(C4CCCC4)c3)n2)cc(C)c1OCC(=O)NCCO [Example 13]", "% trachea constriction at 10 μM": "<5%"}
{"molecule": "CCc1cc(-c2noc(-c3cc(OC)nc(C4CCCC4)c3)n2)cc(C)c1OC[C@@H](O)CNCCO [Example 3]", "% trachea constriction at 10 μM": "<5%"}
{"molecule": "COc1cc(-c2nc(-c3cc(C)c(OCCNCCO)c(Cl)c3)no2)cc(C2CCCC2)n1 [Example 45]", "% trachea constriction at 10 μM": "52%"}

Sourced from patent US9133179B2
